The reported numbers originate from patent US7713994B2.

Hi there, I'd appreciate the recorded pIC50 for every entry that follows.
- TEST TARGET: cyclin D1/cdk 4 enzyme (Homo sapiens, UniProt P11802)
- Construct: made in house; host or cells: Sf9 insect cells, recombinant baculovirus
- Sequence (P11802 whole entry, species assumed): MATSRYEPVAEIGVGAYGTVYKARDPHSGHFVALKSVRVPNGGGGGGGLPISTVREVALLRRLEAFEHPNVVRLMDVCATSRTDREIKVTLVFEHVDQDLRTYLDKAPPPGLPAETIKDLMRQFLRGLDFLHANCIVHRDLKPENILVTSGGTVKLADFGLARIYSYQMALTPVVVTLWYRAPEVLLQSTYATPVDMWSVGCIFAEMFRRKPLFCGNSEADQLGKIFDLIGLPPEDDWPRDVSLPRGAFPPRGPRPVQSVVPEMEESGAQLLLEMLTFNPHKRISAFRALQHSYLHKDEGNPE
- Sequence (P24385 whole entry partner, species assumed): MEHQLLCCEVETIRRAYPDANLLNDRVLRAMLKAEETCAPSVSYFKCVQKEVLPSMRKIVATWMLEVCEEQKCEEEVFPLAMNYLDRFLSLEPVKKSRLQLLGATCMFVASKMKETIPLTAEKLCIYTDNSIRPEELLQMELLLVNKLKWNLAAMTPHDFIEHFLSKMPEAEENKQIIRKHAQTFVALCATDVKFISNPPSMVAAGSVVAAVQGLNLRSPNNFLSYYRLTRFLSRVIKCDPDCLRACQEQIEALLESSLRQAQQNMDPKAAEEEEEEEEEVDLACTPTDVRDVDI
- METHOD SUMMARY: CDK4 ELISA kinase assay (phospho-Rb ser 795 detection)
- Assay type: biochemical
- RUN PARAMETERS: In Vitro Enzyme Assays, 200 μM ATP, read-out: CDK4 IC50
// pIC50 is dimensionless: -log10 of concentration (M)

Input: Entry `COc1c(O)cc(CN/C=C2\C(=O)NC(=O)c3ccc(Br)cc32)cc1O` has what pIC50?
Output: 8.10

Input: Entry `CO[C@@H]1CCN(Cc2ccc(N/C=C3\C(=O)NC(=O)c4ccc(Br)cc43)cc2)C1` has what pIC50?
Output: 5.72

Input: Entry `O=C1NC(=O)c2ccc(Br)cc2/C1=C/Nc1ccc(CCN2CCCC2)cc1` has what pIC50?
Output: 5.89

Input: Entry `O=C1NC(=O)c2ccc(I)cc2/C1=C/Nc1ccc(Cn2ccnc2)cc1` has what pIC50?
Output: 4.61

Input: Entry `CO[C@@H]1CCN(Cc2ccc(N/C=C3\C(=O)NC(=O)c4ccc(I)cc43)cc2)C1` has what pIC50?
Output: 6.00

Input: Entry `CN1CCN(c2ccc(N/C=C3\C(=O)NC(=O)c4ccc(-c5ccc(OC(F)(F)F)cc5)cc43)cc2)CC1` has what pIC50?
Output: 4.54

Input: Entry `O=C1NC(=O)c2ccc(Cl)cc2/C1=C/Nc1ccc(CN2CCCCC2)cc1` has what pIC50?
Output: 5.60

Input: Entry `COc1cnc(CNC=C2C(=O)NC(=O)c3ccc(I)cc32)cc1O` has what pIC50?
Output: 8.00
